Tested on: L1210 leukemia ip in BDF1 mice, survival T/C
Assay: NCI In Vivo Anticancer Drug Screen. Data for tumor model L1210 Leukemia (intraperitoneal) in B6D2F1 (BDF1) mice
Conditions: endpoint: mean survival time; dose: 200.0 mg/kg/injection; schedule: Q01DX001 (ip); vehicle: saline; higher = longer survival
Protocol: The antitumor activity of compounds was measured in mice bearing transplantable tumors. Survival or tumor size were measured and the results are expressed as the measurement made in the treated group (T) divided by the measurement made in the vehicle treated control group (C). The tumor model used in this assay is L1210 Leukemia (intraperitoneal) in B6D2F1 (BDF1) mice
Inconclusive results and toxic doses are left out. Peptide text beside a SMILES is read from it.
T/C for assorted compounds

>  <compound>
CNC(=O)Nc1nc2ccc([N+](=O)[O-])cc2[nH]1

>  <measured on>
L1210 leukemia ip in BDF1 mice, survival T/C

>  <measured endpoint>
T/C

>  <reading>
103 % of control

$$$$
>  <compound>
CNC1(c2ccccc2)C(=O)CC2CCC1C2 (configuration not stated)

>  <measured on>
L1210 leukemia ip in BDF1 mice, survival T/C

>  <measured endpoint>
T/C

>  <reading>
107 % of control

$$$$
>  <compound>
CC1=C(Sc2ccccc2)c2ccccc2C1

>  <measured on>
L1210 leukemia ip in BDF1 mice, survival T/C

>  <measured endpoint>
T/C

>  <reading>
91 % of control

$$$$
>  <compound>
CC(=O)Nc1snc(C)c1[N+](=O)[O-]

>  <measured on>
L1210 leukemia ip in BDF1 mice, survival T/C

>  <measured endpoint>
T/C

>  <reading>
103 % of control

$$$$
>  <compound>
COC(=O)c1cc(C)cc([N+](=O)[O-])c1C

>  <measured on>
L1210 leukemia ip in BDF1 mice, survival T/C

>  <measured endpoint>
T/C

>  <reading>
100 % of control

$$$$

// field: T/C; key: CC1CCC2C(=CC(=O)CC2(C)C)C1 (configuration not stated) ; value = 101 % of control

compound COC(c1ccccc1)C(OC)c1ccccc1 (configuration not stated) , T/C observed: 94 % of control

So, CC(NC(=O)C(CCC(=O)O)NC(=O)C(N)C(C)C)C(=O)NCC(=O)NC(C(=O)NC(CCC(=O)O)C(=O)NC(C)C(=O)NCC(=O)NCC(=O)O)C(C)C (configuration not stated) (H-VEAGVEAGG-OH; configuration not given here) ? Its T/C was 91 % of control

Record O=c1[nH]nnc2c1cnn2C1OC(CO)C(O)C1O (configuration not stated) , field T/C: 106 % of control

# T/C of "Cc1ccc(C(=O)Nc2ccc3c(c2)Cc2ccccc2-3)cc1" = 101 % of control

Short answer for "COC(=O)c1ccc(NCC(=N)N)cc1" : T/C was 107 % of control

For "O=[N+]([O-])c1ccc(Cl)cc1C1OCCO1" the compound record lists T/C as 93 % of control

====

T/C for assorted molecules
system: L1210 leukemia ip in BDF1 mice, survival T/C; assay: NCI In Vivo Anticancer Drug Screen. Data for tumor model L1210 Leukemia (intraperitoneal) in B6D2F1 (BDF1) mice; conditions: endpoint: mean survival time; dose: 200.0 mg/kg/injection; schedule: Q01DX009 (ip); vehicle: saline with Tween-80; higher = longer survival
Toxic doses and inconclusive results are not listed.

>  <molecule>
Cc1cc2c(cc1C)C1(c3ccccc3)OC2(c2ccccc2)C(C(=O)c2ccccc2)C1C(=O)c1ccccc1 (stereo not drawn)

>  <reading>
91 % of control

$$$$

For record "Nc1cc(S(=O)(=O)c2ccc(O)c(N)c2)ccc1O" the listed T/C is 107 % of control

T/C for "[O-][n+]1c(CN2CCCCC2)nc2cccc3c2c1-c1ccccc1-3" is 100 % of control
